Data origin, for the record: the Human Domainome abundance scans (Beltran et al. 2025)

B1: Zinc finger homeobox protein 4, residues 2183 to 2238; numbered along this chain, Q86UP3 (parent)
chain: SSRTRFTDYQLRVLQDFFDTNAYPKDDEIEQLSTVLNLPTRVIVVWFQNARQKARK

Variants of: B1
Assay: abundance fitness (aPCA) (normalised: wild type 0, dead -1); higher = more abundant; growth selection in yeast, the domain comes from the species named
Conditions: Homo sapiens
Label scheme for abundance fitness: lower bin: < -0.3; middle bin: ≥ -0.3 and < 0.005; upper bin: ≥ 0.005

changes	cat
D8E	middle bin
D19P	lower bin
E30W	lower bin
D26K	upper bin
D27M	middle bin
L36V	upper bin
E30G	upper bin
Q31S	middle bin
Q31K	upper bin
E30D	upper bin
Q31L	middle bin
Y9V	middle bin
R5D	upper bin
Y9M	upper bin
Q31I	lower bin
S1T	middle bin
P24C	lower bin
T4V	lower bin
V35E	middle bin
D16M	lower bin
